Values from patent US20130143227A1

- TESTED ON: T1, Myc-LGR4 (mouse LGR4, predicted mature form aa23-951, N-terminal Myc tag), expressed on HEK293 cells (mouse, UniProt A2ARI4 23-951)
- T1 sequence: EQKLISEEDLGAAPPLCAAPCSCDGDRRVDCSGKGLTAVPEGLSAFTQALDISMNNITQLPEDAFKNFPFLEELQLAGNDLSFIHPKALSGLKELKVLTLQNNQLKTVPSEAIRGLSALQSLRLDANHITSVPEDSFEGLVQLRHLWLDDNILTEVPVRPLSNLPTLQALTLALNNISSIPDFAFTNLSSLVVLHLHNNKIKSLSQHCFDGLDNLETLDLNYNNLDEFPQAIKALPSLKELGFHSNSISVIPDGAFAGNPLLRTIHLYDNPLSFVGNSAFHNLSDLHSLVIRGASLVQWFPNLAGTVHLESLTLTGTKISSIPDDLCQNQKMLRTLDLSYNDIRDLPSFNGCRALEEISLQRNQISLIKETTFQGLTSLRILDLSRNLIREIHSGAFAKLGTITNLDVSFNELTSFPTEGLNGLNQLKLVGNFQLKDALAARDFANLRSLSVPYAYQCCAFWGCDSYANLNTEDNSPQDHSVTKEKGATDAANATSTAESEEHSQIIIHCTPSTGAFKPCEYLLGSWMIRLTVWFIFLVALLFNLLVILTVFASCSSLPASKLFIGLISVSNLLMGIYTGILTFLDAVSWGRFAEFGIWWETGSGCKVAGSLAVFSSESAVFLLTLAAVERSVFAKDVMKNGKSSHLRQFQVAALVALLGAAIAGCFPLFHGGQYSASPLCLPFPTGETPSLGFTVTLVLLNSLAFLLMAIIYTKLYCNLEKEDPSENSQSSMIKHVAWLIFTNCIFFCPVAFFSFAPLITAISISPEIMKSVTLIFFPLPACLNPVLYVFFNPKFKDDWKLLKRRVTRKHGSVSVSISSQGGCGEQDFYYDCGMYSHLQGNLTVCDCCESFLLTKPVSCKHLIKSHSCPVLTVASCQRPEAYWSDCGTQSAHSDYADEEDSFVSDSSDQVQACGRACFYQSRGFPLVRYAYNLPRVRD
- ASSAY NAME: cell-based or functional assay
Measured potency (EC50, nM), β-catenin reporter (Super 8x TOPFlash) with Wnt3a CM values are reported for all entries that follow.
Field: numeric (nM). Do not append units.

{"BINDER": "recombinant human RSPO1 (ligand, UniProt Q2MKA7 21-263, looked up, Bought from R&D Systems; also called R-spondin 1) SRGIKGKRQRRISAEGSQACAKGCELCSEVNGCLKCSPKLFILLERNDIRQVGVCLPSCPPGYFDARNPDMNKCIKCKIEHCEACFSHNFCTKCKEGLYLHKGRCYPACPEGSSAANGTMECSSPAQCEMSEWSPWGPCSKKQQLCGFRRGSEERTRRVLHAPVGDHAACSDTKETRRCTVRRVPCPEGQKRRKGGQGRRENANRNLARKESKEAGAGSRRRKGQQQQQQQGTVGPLTSAGPA", "VALUE MEASURED": 0.02}
{"BINDER": "recombinant human RSPO3 (ligand, Bought from R&D Systems; also called R-spondin 3) QNASRGRRQRRMHPNVSQGCQGGCATCSDYNGCLSCKPRLFFALERIGMKQIGVCLSSCPSGYYGTRYPDINKCTKCKADCDTCFNKNFCTKCKSGFYLHLGKCLDNCPEGLEANNHTMECVSIVHCEVSEWNPWSPCTKKGKTCGFKRGTETRVREIIQHPSAKGNLCPPTNETRKCTVQRKKCQKGERGKKGRERKRKKPNKGESKEAIPDSKSLESSKEIPEQRENKQQQKKRKVQDKQKSVSVSTVH", "VALUE MEASURED": 0.02}
{"BINDER": "recombinant human RSPO2 (ligand, UniProt Q6UXX9 22-243, looked up, Bought from R&D Systems; also called R-spondin 2) QGNRWRRSKRASYVSNPICKGCLSCSKDNGCSRCQQKLFFFLRREGMRQYGECLHSCPSGYYGHRAPDMNRCARCRIENCDSCFSKDFCTKCKVGFYLHRGRCFDECPDGFAPLEETMECVEGCEVGHWSEWGTCSRNNRTCGFKWGLETRTRQIVKKPVKDTILCPTIAESRRCKMTMRHCPGGKRTPKAKEKRNKKKKRKLIERAQEQHSVFLATDRANQ", "VALUE MEASURED": 0.0003}

Next, consider the following binder.
Query: Look up potency (EC50, nM), β-catenin reporter (Super 8x TOPFlash) with Wnt3a CM of recombinant human RSPO4 (ligand, Bought from R&D Systems; also called R-spondin 4) LNRRKKQVGTGLGGNCTGCIICSEENGCSTCQQRLFLFIRREGIRQYGKCLHDCPPGYFGIRGQEVNRCKKCGATCESCFSQDFCIRCKRQFYLYKGKCLPTCPPGTLAHQNTRECQGECELGPWGGWSPCTHNGKTCGSAWGLESRVREAGRAGHEEAATCQVLSESRKCPIQRPCPGERSPGQKKGRKDRRPRKDRKLDRRLDVRPRQPGLQP and report it.
Response: 0.09
